subjectOfTest: OCT1 (SLC22A1) (Homo sapiens, UniProt O15245)
Sequence (O15245 whole entry): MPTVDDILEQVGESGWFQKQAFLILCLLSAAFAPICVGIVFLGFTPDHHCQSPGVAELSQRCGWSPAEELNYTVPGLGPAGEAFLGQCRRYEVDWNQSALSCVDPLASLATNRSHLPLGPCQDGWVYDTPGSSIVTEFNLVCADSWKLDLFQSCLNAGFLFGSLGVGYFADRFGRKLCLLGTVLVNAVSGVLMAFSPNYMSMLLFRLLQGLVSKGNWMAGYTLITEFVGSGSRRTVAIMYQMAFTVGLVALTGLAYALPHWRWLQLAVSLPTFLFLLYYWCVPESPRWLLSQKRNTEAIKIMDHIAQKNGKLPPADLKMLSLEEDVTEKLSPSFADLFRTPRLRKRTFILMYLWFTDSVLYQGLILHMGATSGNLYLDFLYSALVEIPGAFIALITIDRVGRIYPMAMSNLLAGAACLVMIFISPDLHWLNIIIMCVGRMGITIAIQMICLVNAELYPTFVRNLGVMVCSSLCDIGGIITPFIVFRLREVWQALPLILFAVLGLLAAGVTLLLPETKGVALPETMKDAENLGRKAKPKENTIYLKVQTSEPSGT
method: in vitro
experimentalParameters: HEK293 cells that express human OCT1, probe 4-(4-(dimethylamino)styryl)-N-methylpyridinium
experimentalEndpoint: inhibition at 100 µM
Report field: quantity (unit follows the number).

Consider the following illustrative entries.
| compound | subjectOfTest | inhibition at 100 µM |
| --- | --- | --- |
| O=c1[nH]cc(F)c(=O)[nH]1 | OCT1 (SLC22A1) (Homo sapiens, UniProt O15245) | 0.9% |
| CC[C@]1(O)C[C@@H]2CN(CCc3c([nH]c4ccccc34)[C@@](C(=O)OC)(c3cc4c(cc3OC)N(C)[C@H]3[C@@](O)(C(=O)OC)[C@H](OC(C)=O)[C@]5(CC)C=CCN6CC[C@]43[C@@H]65)C2)C1 | OCT1 (SLC22A1) (Homo sapiens, UniProt O15245) | 1.9% |
| CC1(C)S[C@@H]2[C@H](NC(=O)[C@H](N)c3ccccc3)C(=O)N2[C@H]1C(=O)O | OCT1 (SLC22A1) (Homo sapiens, UniProt O15245) | 20.3% |
| CC(COc1ccccc1)N(CCCl)Cc1ccccc1 (stereo not given) | OCT1 (SLC22A1) (Homo sapiens, UniProt O15245) | 56.7% |
| NS(=O)(=O)c1cc(C(=O)O)c(NCc2ccco2)cc1Cl [FUROSEMIDE] | OCT1 (SLC22A1) (Homo sapiens, UniProt O15245) | 11.7% |
| CC(=O)N[C@@H](CS)C(=O)O | OCT1 (SLC22A1) (Homo sapiens, UniProt O15245) | 15.5% |

Prompt line: Answer with the recorded inhibition at 100 µM of CC[C@H]1OC(=O)[C@H](C)[C@@H](O[C@H]2C[C@@](C)(OC)[C@@H](O)[C@H](C)O2)[C@H](C)[C@@H](O[C@@H]2O[C@H](C)C[C@H](N(C)C)[C@H]2O)[C@](C)(O)C[C@@H](C)C(=O)[C@H](C)[C@@H](O)[C@]1(C)O only.
Response line: 14%

Prompt line: Answer with the recorded inhibition at 100 µM of CCC[C@@H]1C[C@@H](C(=O)N[C@@H]([C@H]2O[C@H](SC)[C@H](O)[C@@H](O)[C@H]2O)[C@H](C)Cl)N(C)C1 only.
Response line: 19.5%

Prompt line: Answer with the recorded inhibition at 100 µM of COc1cc(C(O)CN)ccc1O (racemic) only.
Response line: -2.4%

Prompt line: Answer with the recorded inhibition at 100 µM of N=C(N)NCCCCN only.
Response line: 2.1%

Prompt line: Answer with the recorded inhibition at 100 µM of CC(=O)[C@@]1(O)CC[C@H]2[C@@H]3C=C(Cl)C4=CC(=O)[C@@H]5C[C@@H]5[C@]4(C)[C@H]3CC[C@@]21C only.
Response line: 61.6%

Prompt line: Answer with the recorded inhibition at 100 µM of Nc1nc2ncc(CNc3ccc(C(=O)N[C@@H](CCC(=O)O)C(=O)O)cc3)nc2c(=O)[nH]1 only.
Response line: 33%
